STUDY_SYSTEM: Kappa-type opioid receptor (Homo sapiens, UniProt P41145)
Sequence (P41145 whole entry, the tested form may be a part): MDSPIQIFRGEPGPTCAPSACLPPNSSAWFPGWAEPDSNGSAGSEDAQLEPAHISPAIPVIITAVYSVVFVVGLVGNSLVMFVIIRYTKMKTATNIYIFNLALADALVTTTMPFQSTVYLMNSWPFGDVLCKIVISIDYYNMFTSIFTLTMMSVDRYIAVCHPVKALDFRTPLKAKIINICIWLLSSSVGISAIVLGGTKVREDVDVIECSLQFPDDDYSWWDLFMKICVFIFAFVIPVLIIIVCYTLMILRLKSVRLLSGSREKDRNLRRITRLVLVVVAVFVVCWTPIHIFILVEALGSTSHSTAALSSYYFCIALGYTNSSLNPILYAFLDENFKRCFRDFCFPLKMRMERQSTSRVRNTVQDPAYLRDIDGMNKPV
TEST_SUMMARY: Agonist activity at human kappa opioid receptor expressed in CHO cells assessed as beta-arrestin2 recruitment by enzyme fragment complementation method
Assay type: cell-based
Task for the reader: assign each of the following compounds its reported pEC50.
Numbers only, as −log10 of the molar value.

[[record]]
smiles_string = "CN(CCc1ccc(Cl)c(Cl)c1)[C@@H]1CCCC[C@H]1N1CCCC1"
endpoint_result = 7.25


Switching to the query record.
Item: "Cc1cc(CSc2nnc(-c3ccccn3)n2Cc2ccco2)ccc1C(F)(F)F" | pEC50: 5.38
